Molecular target: Growth hormone secretagogue receptor type 1 (Homo sapiens)
Sequence (Q92847 whole entry): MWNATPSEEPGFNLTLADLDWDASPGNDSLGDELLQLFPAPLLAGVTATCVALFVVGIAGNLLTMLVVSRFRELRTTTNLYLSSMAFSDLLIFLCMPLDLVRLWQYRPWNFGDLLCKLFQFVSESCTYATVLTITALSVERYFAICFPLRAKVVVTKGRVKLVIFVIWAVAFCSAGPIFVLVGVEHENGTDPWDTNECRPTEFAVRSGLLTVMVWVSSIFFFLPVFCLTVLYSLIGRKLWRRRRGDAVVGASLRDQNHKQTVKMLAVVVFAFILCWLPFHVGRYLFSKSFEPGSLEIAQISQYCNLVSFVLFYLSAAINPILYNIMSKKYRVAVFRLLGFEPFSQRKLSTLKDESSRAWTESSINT
Test: Displacement of red-ghrelin from SNAP-tagged human GHSR expressed in HEK293 cells incubated for 3 hrs at 4 degC or for 1 hr at room temperature by HTRF assay
attribute-measured: log10(Ki) (log10 of the value in nM)

| smiles-repr | observed-value |
| --- | --- |
| COc1ccc(Cn2c(CCc3ccccc3)nnc2[C@@H](Cc2c[nH]c3ccccc23)NC(=O)CNC(=O)/C(C#N)=C/c2c[nH]c3ccccc23)cc1 | 0.80 |
| COc1ccc(Cn2c(CCc3ccccc3)nnc2[C@@H](Cc2c[nH]c3ccccc23)NC(=O)CNC(=O)/C(C#N)=C/c2ccc(F)cc2)cc1 | -0.22 |
| COc1ccc(/C=C(\C#N)C(=O)NCC(=O)N[C@H](Cc2c[nH]c3ccccc23)c2nnc(CCc3ccccc3)n2Cc2ccc(OC)cc2)cc1 | -0.30 |
| COc1ccc(Cn2c(CCc3ccccc3)nnc2[C@@H](Cc2c[nH]c3ccccc23)NC(=O)CNC(=O)/C(C#N)=C/c2ccc(N(C)C)cc2)cc1 | 0.38 |
| COc1ccc(/C=C(\C#N)C(=O)NCCC(=O)N[C@H](Cc2c[nH]c3ccccc23)c2nnc(CCc3ccccc3)n2Cc2ccc(OC)cc2)cc1 | 1.15 |
| COc1ccc(Cn2c(CCN3CCOCC3)nnc2[C@@H](Cc2c[nH]c3ccccc23)NC(=O)CNC(=O)/C(C#N)=C/c2ccc(N(C)C)cc2)cc1 | 0.80 |
| COc1ccc(Cn2c(CCc3c[nH]c4ccccc34)nnc2[C@@H](Cc2c[nH]c3ccccc23)NC(=O)CNC(=O)/C(C#N)=C/c2ccc(O)cc2)cc1 | 1.48 |

----------
Molecular target: Growth hormone secretagogue receptor type 1 (Homo sapiens)
Test: Antagonist activity at SNAP-tagged human GHSR expressed in HEK293 cells assessed as inhibition of ghrelin-induced IP1 accumulation at 10^-5M measured after 30 mins by IP1-d2 derivative based HTRF assay relative to ghrelin
Type: functional, cell-based
Conditions: filed as antagonist, dose 1.0 10^-5M

| molecule | %max / % |
| --- | --- |
| COc1ccc(Cn2c(CCc3ccccc3)nnc2[C@@H](Cc2c[nH]c3ccccc23)NC(=O)CNC(=O)C(C#N)Cc2ccccc2)cc1 (some centres undefined) | 70 |
| COc1ccc(Cn2c(CCc3ccccc3)nnc2[C@@H](Cc2c[nH]c3ccccc23)NC(=O)CN)cc1 | 65 |
| COc1ccc(Cn2c(CCc3ccccc3)nnc2[C@@H](Cc2c[nH]c3ccccc23)NC(=O)CNC(=O)/C=C/c2ccc(F)cc2)cc1 | 71 |
| COc1ccc(Cn2c(CCc3ccccc3)nnc2[C@@H](Cc2c[nH]c3ccccc23)NC(=O)CNC(=O)C(C)(C)C#N)cc1 | 70 |

----------
Biological target: Growth hormone secretagogue receptor type 1 (Homo sapiens)
Assay: Displacement of red-ghrelin from SNAP-tagged human GHSR expressed in HEK293 cells incubated for 3 hrs at 4 degC or for 1 hr at room temperature by HTRF assay
Format: cell-based
pKi: −log10 of the molar value.

| compound | pKi |
| --- | --- |
| COc1ccc(Cn2c(CCc3ccccc3)nnc2[C@@H](Cc2c[nH]c3ccccc23)NC(=O)CNC(=O)/C(C#N)=C/c2ccc(O)cc2)cc1 | 8.52 |
| COc1ccc(Cn2c(CCc3ccccc3)nnc2[C@@H](Cc2c[nH]c3ccccc23)NC(=O)CNC(=O)/C(C#N)=C/c2ccc(C)cc2)cc1 | 9.00 |
| COc1ccc(CC(N)C(=O)NCC(=O)N[C@H](Cc2c[nH]c3ccccc23)c2nnc(CCc3ccccc3)n2Cc2ccc(OC)cc2)cc1 (single isomer, unassigned) | 7.77 |
| COc1ccc(/C=C(\C#N)C(=O)OCC(=O)N[C@H](Cc2c[nH]c3ccccc23)c2nnc(CCc3ccccc3)n2Cc2ccc(OC)cc2)cc1 | 7.89 |
| CCN(CC)CCc1nnc([C@@H](Cc2c[nH]c3ccccc23)NC(=O)CNC(=O)/C(C#N)=C/c2ccc(OC)cc2)n1Cc1ccc(OC)cc1 | 8.00 |
| COc1ccc(/C=C(\C#N)C(=O)N[C@@H](C)C(=O)N[C@H](Cc2c[nH]c3ccccc23)c2nnc(CCc3ccccc3)n2Cc2ccc(OC)cc2)cc1 | 8.52 |

Source of measurements: ChEMBL document CHEMBL4665788
